From: ChEMBL document CHEMBL1149146

Tested on: Mus musculus
protocolNotes: Inhibition of acute experimental autoimmune encephalomyelitis in SJL/N mice by 0.2 mg/kg/day p.o.
Format: functional
setupConditions: route oral
Task for the reader: assign each of the following molecules its reported inhibition in vivo at 0.2 mg/kg/day.
One number for each entry, in %.

>>> measurement("COc1cccc2c1c(O)c(C(=O)N(C)c1cc(F)ccc1F)c(=O)n2C")
62
>>> measurement("COc1cccc2c1c(O)c(C(=O)N(C)c1cccc(C(C)(C)C)c1)c(=O)n2C")
38
>>> measurement("CCN(C(=O)c1c(O)c2c(Br)cccc2n(C)c1=O)c1ccccc1")
57
>>> measurement("CN(C)c1cccc2c1c(O)c(C(=O)N(C)c1ccccc1)c(=O)n2C")
58

// inhibition in vivo at 0.2 mg/kg/day value for CCN(C(=O)c1c(O)c2c3c(ccc2n(C)c1=O)OCO3)c1ccccc1 : 58

* * *

Please provide measured inhibition in vivo at 0.2 mg/kg/day for the entries that follow.
Tested on: Mus musculus
protocolNotes: Inhibition of acute experimental autoimmune encephalomyelitis in SJL/N mice by 0.2 mg/kg/day p.o.
Format: functional
setupConditions: route oral
Answers are plain numbers, in %.

>>> measurement("COc1cccc2c1c(O)c(C(=O)N(C)c1c(F)cccc1F)c(=O)n2C")
28
>>> measurement("CCCN(C(=O)c1c(O)c2c(Cl)cccc2n(C)c1=O)c1ccccc1")
49
>>> measurement("CCN(C(=O)c1c(O)c2c(SC)cccc2n(C)c1=O)c1ccccc1")
51
>>> measurement("CCOc1cccc2c1c(O)c(C(=O)N(C)c1ccccc1)c(=O)n2C")
44
>>> measurement("COc1cccc2c1c(O)c(C(=O)N(C)c1ccc(C(C)(C)C)cc1)c(=O)n2C")
60

I need inhibition in vivo at 0.2 mg/kg/day for every entry listed below, if you could help.
1. CCc1cccc2c1c(O)c(C(=O)N(CC)c1ccccc1)c(=O)n2C [PAQUINIMOD]
2. COc1cccc2c1c(O)c(C(=O)N(C)c1ccccc1F)c(=O)n2C
3. CN(C(=O)c1c(O)c2c([N+](=O)[O-])cccc2n(C)c1=O)c1ccccc1

**Result**
[81, 94, 46]

* * *

Test system: Mus musculus
protocolNotes: Inhibition of acute experimental autoimmune encephalomyelitis in SJL/N mice by 0.2 mg/kg/day p.o.
Format: functional
setupConditions: route oral
inhibition in vivo at 0.2 mg/kg/day vs 80%: at or above is MET, below is NOT MET.

// below: answered compounds
>>> grouplabel("CCN(C(=O)c1c(O)c2c(C(F)(F)F)cccc2n(C)c1=O)c1ccccc1")
"NOT MET"
>>> grouplabel("CSc1cccc2c1c(O)c(C(=O)N(C)c1ccccc1)c(=O)n2C")
"MET"
>>> grouplabel("COc1cccc2c1c(O)c(C(=O)N(C)c1cccc(Cl)c1)c(=O)n2C")
"NOT MET"

Consider the additional compound presented here.
**Query** Threshold query (inhibition in vivo at 0.2 mg/kg/day >= 80%) on COc1cccc2c1c(O)c(C(=O)N(C)c1ccc(F)cc1F)c(=O)n2C
**Result** NOT MET

* * *

For each of the molecules below, state its inhibition in vivo at 5 mg/kg/day.
System: Mus musculus
protocolNotes: Inhibition of acute experimental autoimmune encephalomyelitis in SJL/N mice by 5 mg/kg/day p.o./s.c.
Assay type: functional
setupConditions: route oral
Answers are plain numbers, in %.

>>> measurement("COc1ccc2c(c1)c(O)c(C(=O)N(C)c1ccccc1)c(=O)n2C")
100
>>> measurement("CN(C(=O)c1c(O)c2c(Cl)cccc2n(C)c1=O)c1ccccc1")
100
>>> measurement("Cc1ccc2c(c1)c(O)c(C(=O)N(C)c1ccccc1)c(=O)n2C")
100
>>> measurement("CN(C(=O)c1c(O)c2cc(OC(F)(F)F)ccc2n(C)c1=O)c1ccccc1")
96

I need inhibition in vivo at 5 mg/kg/day for every entry listed below, if you could help.
1. COc1cccc2c1c(O)c(C(=O)N(C)c1cccc(Oc3ccccc3)c1)c(=O)n2C
2. CN(C(=O)c1c(O)c2cc(Cl)ccc2n(C)c1=O)c1ccccc1

**Result**
90
100

Please go through the list and note inhibition in vivo at 5 mg/kg/day for each molecule.
1. Cc1cccc2c1c(O)c(C(=O)N(C)c1ccccc1)c(=O)n2C
2. CCN(C(=O)c1c(O)c2cc(Cl)ccc2n(C)c1=O)c1ccccc1

**Result**
97
83

Provide inhibition in vivo at 5 mg/kg/day for all items below, preserving their order.
1. COc1cccc2c1c(O)c(C(=O)N(C)c1ccc(Cl)cc1)c(=O)n2C
2. CCN(C(=O)c1c(O)c2cc(OC)ccc2n(C)c1=O)c1ccccc1
3. CN(C(=O)c1c(O)c2cc(C(F)(F)F)ccc2n(C)c1=O)c1ccccc1
4. COc1cccc2c1c(O)c(C(=O)N(C)c1ccc(F)cc1)c(=O)n2C
5. CCN(C(=O)c1c(O)c2c(OC)cccc2n(C)c1=O)c1ccccc1

**Result**
1: 89; 2: 84; 3: 100; 4: 93; 5: 86

Would you mind giving inhibition in vivo at 5 mg/kg/day for every molecule in the list below?
1. CN(C(=O)c1c(O)c2cc(F)ccc2n(C)c1=O)c1ccc(F)cc1
2. COc1cccc2c1c(O)c(C(=O)N(C)c1ccccc1)c(=O)n2C
3. CCN(C(=O)c1c(O)c2c(Cl)cccc2n(C)c1=O)c1ccccc1 [LAQUINIMOD]
4. COc1cccc(N(C)C(=O)c2c(O)c3c(OC)cccc3n(C)c2=O)c1

**Result**
1: 93; 2: 96; 3: 96; 4: 85

* * *

Task for the reader: assign each of the following compounds its reported inhibition in vivo at 1 mg/kg/day.
Tested on: Mus musculus
protocolNotes: Inhibition of acute experimental autoimmune encephalomyelitis in SJL/N mice by 1 mg/kg/day p.o./s.c.
Assay type: functional
setupConditions: route oral
Lab note: write values as number then unit, every time.

>>> measurement("COc1ccc2c(c1)c(O)c(C(=O)N(C)c1ccccc1)c(=O)n2C")
"100%"
>>> measurement("Cc1ccc2c(c1)c(O)c(C(=O)N(C)c1ccccc1)c(=O)n2C")
"79%"

Let us move to another entry and its inhibition in vivo at 1 mg/kg/day.
Record COc1cccc2c1c(O)c(C(=O)N(C)c1ccc(Cl)cc1)c(=O)n2C , field inhibition in vivo at 1 mg/kg/day: 70%
